# Test system: K-562 leukemia
# TEST: NCI tumour cell line growth inhibition, 48 h
ASSAY READOUT: TGI

Looking up CCC(C(=O)[O-])C(=O)[O-].CCC(C(=O)[O-])C(=O)[O-].N.N.NCCCCCN.[Pt+4].[Pt+4] , I see its TGI listed as > 100 µM

TGI measured on NC1=NC(c2ccccc2)N=C(Nc2ccccc2)N1 (centres undefined) = > 100 µM

The molecule identified as Cc1cc(=O)oc2cc(OC(=O)Nc3ccc(Cl)c(Cl)c3)ccc12 registered its TGI at 28.2 µM

In plain terms, O=C(O)c1c(-c2c3ccc(=O)cc-3oc3cc(O)ccc23)cc2ccccc2c1-c1ccccc1 has a documented TGI of > 46.4 µM

// TGI value for CC(C)(C)NC(NC(C)(C)C)=C(C(Cl)=C(Cl)Cl)[N+](=O)[O-] : > 100 µM

Short answer for Cc1ccc(C(=O)CC(Cl)=C(Cl)Cl)cc1 : TGI was > 100 µM

The reported value for COc1nn(Cc2ccccc2F)c2ccc([N+](=O)[O-])cc12 in terms of TGI is > 100 µM

The recorded TGI for entry Cc1ccc(/C=C2\NC(=S)N(CN3CCOCC3)C2=O)cc1 equals > 100 µM

// sample COc1cc2c3c(n(CCCN4CCN(C)CC4)c(=O)c2cc1OC)-c1cc2c(cc1C3=O)OCO2 , its TGI was 22 µM

# TGI (molecule: O=C(O)Cc1ccc(N2N=C(c3ccccc3)CC2=O)cc1 ) is > 100 µM

Query C/C=C(\C)C(=O)O[C@@H]1C(O)[C@H]2OC(COC(=O)CCC(=O)CCCCCC[C@H](CCCCC)O[C@@H]3OC(C)[C@H](OC(C)=O)C(O)[C@H]3O2)[C@H]1OC(=O)/C=C/c1ccccc1 (some centres undefined) yields TGI of > 100 µM

Briefly, TGI measured for O=C(CC/C(C/C(=N/O)c1ccc(F)cc1)=N/O)N(Cc1ccccc1)Cc1ccccc1 : > 100 µM

Per the record, Oc1ccc(-c2nc3cc(C(F)(F)F)ccc3n2CC2CCCN3CCCCC23)cc1 (centres undefined) has TGI of 30.3 µM

The molecule identified as CC1=C(C(=O)OCCO[N+](=O)[O-])C(c2ccccc2C(F)(F)F)C(C(=O)OC(C)C)=C(C)N1 (centres undefined) registered its TGI at > 100 µM
